Below, each entry is listed alongside its reported Ratio.
# protocol-notes: Scavenging activity against (+/-)-(E)-methyl-2-[(E)-hydroxyimino]-5-nitro-6-methoxy-3-hexemide-induced NO generation in human Chang liver cells
# Type: functional

Check out these entries, answers already filled in.
1) C=C[C@@H](O)C#CC#C[C@@H](O)/C=C\CCCCCCCCOC(C)=O ... 1.2
2) CC(C)=CCCC1(C)CCc2c(O)ccc(C(=O)/C=C/c3ccc(O)cc3)c2O1 (stereo not given) ... 2.4
3) COc1c2occc2cc2ccc(=O)oc12 ... 1.3
4) CC(C)=CCCC(C)(O)CCc1c(O)ccc(C(=O)/C=C/c2ccc(O)cc2)c1O (stereo not given) ... 2.4

# return recorded Ratio for entry "CC1(C)[C@@H](O[C@H]2O[C@H](C(=O)O)[C@@H](O)[C@H](O)[C@H]2O[C@@H]2O[C@H](C(=O)O)[C@@H](O)[C@H](O)[C@H]2O)CC[C@]2(C)[C@H]3C(=O)C=C4[C@@H]5C[C@@](C)(C(=O)O)CC[C@]5(C)CC[C@@]4(C)[C@]3(C)CC[C@@H]12" 2.2
